Target: ^3 H-noradrenaline uptake in hippocampal synaptosomes (Rattus norvegicus, UniProt Q63380)
Construct: Hippocampi from male Wistar rats (150-200 g) are homogenized
Sequence (Q63380 1-617): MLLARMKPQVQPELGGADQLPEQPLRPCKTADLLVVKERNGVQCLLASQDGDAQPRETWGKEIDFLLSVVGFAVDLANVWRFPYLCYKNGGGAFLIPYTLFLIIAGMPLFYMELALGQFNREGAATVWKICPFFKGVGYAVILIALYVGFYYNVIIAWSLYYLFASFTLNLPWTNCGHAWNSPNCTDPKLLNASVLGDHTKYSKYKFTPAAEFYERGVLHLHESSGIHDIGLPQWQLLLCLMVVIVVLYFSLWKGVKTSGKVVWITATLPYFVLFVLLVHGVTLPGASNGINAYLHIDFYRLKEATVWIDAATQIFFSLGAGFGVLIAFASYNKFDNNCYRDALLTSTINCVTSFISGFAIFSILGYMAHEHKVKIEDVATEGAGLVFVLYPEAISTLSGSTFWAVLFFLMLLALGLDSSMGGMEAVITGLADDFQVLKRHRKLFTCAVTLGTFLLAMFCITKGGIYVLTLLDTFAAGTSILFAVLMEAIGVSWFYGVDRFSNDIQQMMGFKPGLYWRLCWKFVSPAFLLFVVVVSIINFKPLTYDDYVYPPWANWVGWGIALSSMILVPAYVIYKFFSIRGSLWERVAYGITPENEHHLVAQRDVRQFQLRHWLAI
Assay: In vitro inhibition of 3H-noradrenaline (3H-NA) uptake in hippocampal synaptosomes
Conditions: 3H-NA 1 nM, 90 min at 37° C.
Structures can show the parent of a compound that is named as a salt.
Please respond with reported pIC50 for every item in the list.
Answers are plain numbers, as −log10 of the molar value.

These solved cases illustrate the format of a correct answer.
compound: CON=C1CN2[C@H]3CC[C@@H]2[C@@H]1[C@@H](c1ccc(Cl)c(Cl)c1)C3
pIC50: 9.05

compound: CC(=O)OC1CN2[C@H]3CC[C@@H]2[C@@H]1[C@@H](c1ccc(Cl)c(Cl)c1)C3 (some centres unmarked) [acetate fumarate]
pIC50: 8.21

compound: OC1CCN2[C@H]3CC[C@@H]2[C@@H]1[C@@H](c1ccc(Cl)c(Cl)c1)C3 (some centres unmarked)
pIC50: 8.39

compound: OC1CN2[C@H]3CC[C@@H]2[C@@H]1[C@@H](c1ccc(Cl)c(Cl)c1)C3 (some centres unmarked)
pIC50: 8.13

compound: CON=C1CCN2[C@H]3CC[C@@H]2[C@@H]1[C@@H](c1ccc(Cl)c(Cl)c1)C3
pIC50: 8.70

Batch of 3 compounds: report pIC50 for each.
1. O=C1CCN2[C@H]3CC[C@@H]2[C@@H]1[C@@H](c1ccc(Cl)c(Cl)c1)C3
2. COC1CN2[C@H]3CC[C@@H]2[C@@H]1[C@@H](c1ccc(Cl)c(Cl)c1)C3 (some centres unmarked)
3. O=C1CN2[C@H]3CC[C@@H]2[C@@H]1[C@@H](c1ccc(Cl)c(Cl)c1)C3

Given back:
7.46
8.85
8.28
